Experiment: Half life in simulated intestinal fluid at 20 uM by LC-MS/MS analysis
Format: ADME
# half-life at 20 µM per entry
measuredEndpoint: half-life at 20 µM

1. CC(=O)NCCCC[C@H](NC(=O)C(C)(C)NC(=O)[C@H](Cc1ccc2ccccc2c1)NC(=O)[C@H](Cc1ccc(OCCN)cc1)NC(=O)[C@@H](NC(=O)[C@H](CCC(N)=O)NC(=O)[C@H](Cc1c[nH]c2ccccc12)NC(=O)[C@@H](NC(=O)[C@H](CCC(N)=O)NC(=O)[C@@H](NC(C)=O)C(C)(C)S)[C@@H](C)O)C(C)(C)S)C(=O)N[C@@H](CC(N)=O)C(=O)NCCC(N)=O	> 6 h
2. CC(=O)N[C@H](C(=O)N[C@@H](CCC(N)=O)C(=O)N[C@H](C(=O)N[C@@H](Cc1c[nH]c2ccccc12)C(=O)N[C@@H](CCC(N)=O)C(=O)N[C@H](C(=O)N[C@@H](Cc1ccc(O)cc1)C(=O)N[C@@H](Cc1c[nH]c2ccccc12)C(=O)N[C@@](C)(CCCN)C(=O)N[C@@H](CCC(=O)O)C(=O)N[C@@H](CC(N)=O)C(=O)NCC(N)=O)C(C)(C)S)[C@@H](C)O)C(C)(C)S	3 to 6 h
3. CC(=O)NCCCC[C@H](NC(=O)C(C)(C)NC(=O)[C@H](Cc1ccc2ccccc2c1)NC(=O)[C@H](Cc1ccc(C(N)=O)cc1)NC(=O)[C@@H](NC(=O)[C@H](CCC(N)=O)NC(=O)[C@H](Cc1c[nH]c2ccccc12)NC(=O)[C@@H](NC(=O)[C@H](CC(N)=O)NC(=O)[C@@H](NC(C)=O)C(C)(C)S)[C@@H](C)O)C(C)(C)S)C(=O)N[C@@H](CC(N)=O)C(=O)N[C@@H](CC(N)=O)C(N)=O	1 to 2 h
4. CC(=O)N[C@@H](CCCNC(=N)N)C(=O)N[C@H]1CCSC[C@@H](C(=O)N[C@@H](Cc2ccc(OCCN)cc2)C(=O)N[C@@H](Cc2ccc3ccccc3c2)C(=O)N[C@@](C)(CCCCN)C(=O)N[C@@H](CCC(=O)O)C(=O)N[C@@H](CC(N)=O)C(=O)N[C@@H](CC(N)=O)C(N)=O)NC(=O)[C@H](CCC(N)=O)NC(=O)[C@H](Cc2c[nH]c3ccccc23)NC(=O)[C@H]([C@@H](C)O)NC(=O)[C@H](CCC(N)=O)NC1=O	< 1 h
5. CC(=O)N[C@H]1CCSC[C@@H](C(=O)N[C@@H](Cc2ccc(OCCN)cc2)C(=O)N[C@@H](Cc2c[nH]c3ccccc23)C(=O)N[C@@](C)(CCCCN)C(=O)N[C@@H](CCC(=O)O)C(=O)N[C@@H](CC(N)=O)C(=O)NCC(N)=O)NC(=O)[C@H](CCC(N)=O)NC(=O)[C@H](Cc2c[nH]c3ccccc23)NC(=O)[C@H]([C@@H](C)O)NC(=O)[C@H](CCC(N)=O)NC1=O	6 to 24 h

// data source = ChEMBL document CHEMBL4417631
